Target: human PAH with the R408W mutation (Homo sapiens, UniProt P00439, R408W)
Construct: expressed in transfected cells
Sequence (P00439 1-452 R408W): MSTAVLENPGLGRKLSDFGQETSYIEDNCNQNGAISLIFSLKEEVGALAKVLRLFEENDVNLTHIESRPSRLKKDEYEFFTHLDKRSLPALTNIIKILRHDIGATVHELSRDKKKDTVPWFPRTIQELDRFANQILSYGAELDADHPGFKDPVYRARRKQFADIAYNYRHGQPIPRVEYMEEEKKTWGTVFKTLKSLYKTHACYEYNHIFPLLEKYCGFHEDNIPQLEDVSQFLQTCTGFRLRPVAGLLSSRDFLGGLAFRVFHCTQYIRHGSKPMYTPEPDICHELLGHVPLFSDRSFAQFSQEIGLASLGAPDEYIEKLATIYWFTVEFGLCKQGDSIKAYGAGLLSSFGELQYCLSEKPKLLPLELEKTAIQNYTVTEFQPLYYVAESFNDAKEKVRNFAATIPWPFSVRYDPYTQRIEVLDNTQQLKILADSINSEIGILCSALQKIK
Assay: Cell Based Phenylalanine Flux Assay;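 note: after compound treatment, cells received sepiapterin plus isotope-labelled Phenylalanine for 4 hours, then labelled Tyrosine in the medium was quantified, 10-point 2-fold dilution series run in duplicate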
Conditions: A375 cells expressing human R408W PAH; 24 hrs compound incubation; 13C-Tyrosine by LC-MS; average where tested multiple times; read-out: AC50
assayReadout: AC50

*Q* Query AC50 for Cc1c([C@@H]2c3nc[nH]c3CCN2C(=O)c2oc(C(C)(C)O)nc2C(F)F)nn2ccccc12 [Example 786]
*A* < 500 nM

*Q* Query AC50 for CC(C)(C)c1nnc(C(=O)N2CCc3[nH]cnc3[C@H]2c2cc3c(Cl)cccn3n2)o1 [Example 1047]
*A* < 500 nM

*Q* Query AC50 for CC(C)(C)c1nnc(C(=O)N2CCc3[nH]cnc3[C@@H]2c2cc3c(C(F)(F)F)cccn3n2)o1 [Example 949]
*A* 1000 to 5000 nM

*Q* Query AC50 for Cc1cccc(-c2nnc(C(=O)N3CCc4[nH]cnc4[C@@H]3c3cc4cccc(C(F)(F)F)n4n3)o2)n1 [Example 1401]
*A* 1000 to 5000 nM

*Q* Query AC50 for O=C(c1nnc(-c2cccnc2)o1)N1CCc2[nH]cnc2[C@@H]1c1cc2ccccn2n1 [Example 1347]
*A* 1000 to 5000 nM

*Q* Query AC50 for CC(C)(F)c1nnc(C(=O)N2CCc3[nH]cnc3[C@H]2c2cc3c(C(F)(F)F)cccn3n2)o1 [Example 950]
*A* < 500 nM

*Q* Query AC50 for Cc1cccn2nc([C@@H]3c4nc[nH]c4CCN3C(=O)c3nnc(C(C)C)o3)cc12 [Example 1450]
*A* < 500 nM

Cited source for all entries: patent US20230365592A1
